Data origin: patent US8940769B2

// inhibition at 0.2 µM lookup, one value per entry
testSystem: human vanilloid receptor VR-1 (hVR1) (Homo sapiens)
Construct: expressed in transfected cells; host or cells: HEK293 Tet-on cells (hVR1-HEK293), expression induced with doxycycline
Sequence (Q8NER1 whole entry): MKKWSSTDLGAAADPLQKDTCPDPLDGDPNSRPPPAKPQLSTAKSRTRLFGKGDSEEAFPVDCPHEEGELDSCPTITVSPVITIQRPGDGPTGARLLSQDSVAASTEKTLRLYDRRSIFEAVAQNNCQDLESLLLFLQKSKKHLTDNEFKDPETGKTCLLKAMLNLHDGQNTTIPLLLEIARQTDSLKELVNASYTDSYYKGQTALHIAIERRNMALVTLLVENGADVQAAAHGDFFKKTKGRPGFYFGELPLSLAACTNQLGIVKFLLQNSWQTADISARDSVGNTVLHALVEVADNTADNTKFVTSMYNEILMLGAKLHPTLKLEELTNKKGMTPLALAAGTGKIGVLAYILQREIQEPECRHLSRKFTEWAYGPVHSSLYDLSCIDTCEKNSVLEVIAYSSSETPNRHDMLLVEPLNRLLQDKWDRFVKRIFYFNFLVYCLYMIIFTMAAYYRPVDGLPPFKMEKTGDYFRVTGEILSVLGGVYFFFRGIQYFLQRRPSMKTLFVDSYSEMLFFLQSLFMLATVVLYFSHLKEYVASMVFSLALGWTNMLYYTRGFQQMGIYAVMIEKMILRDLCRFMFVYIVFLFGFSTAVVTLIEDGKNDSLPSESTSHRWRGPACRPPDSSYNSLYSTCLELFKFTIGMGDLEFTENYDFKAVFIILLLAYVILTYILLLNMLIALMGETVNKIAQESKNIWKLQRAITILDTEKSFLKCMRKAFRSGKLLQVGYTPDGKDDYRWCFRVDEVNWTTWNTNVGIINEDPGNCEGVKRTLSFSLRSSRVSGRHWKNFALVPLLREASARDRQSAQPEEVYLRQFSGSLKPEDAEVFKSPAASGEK
experimentalProtocol: Calcium influx test of vanilloid receptor (capsaicin-induced, Fluo-3/AM, hVR1-HEK293 cells)
Assay type: cell-based
protocolConditions: single concentration of compound 200 nM, 1 μM capsaicin, read-out: Inhibitory effect (%) on calcium influx
Note: unit % is implicit; provide only the numeric part.

Some compounds with recorded inhibition at 0.2 µM:
CC(C)(C)c1ccc2nc(-c3ccc(-c4ncc(CO)cc4Cl)cn3)[nH]c2c1 [Compound 90] = 42.7
C=Cc1cnc(-c2ccc(-c3nc4ccc(C(F)(F)F)cc4[nH]3)nc2)c(Cl)c1 [Compound 66] = 0.2
CCNC(=O)c1cnc(-c2ccc(-c3nc4ccc(C(F)(F)F)cc4[nH]3)nc2)c(Cl)c1 [Compound 97] = 13.3
C=Cc1cnc(-c2ccc(-c3nc4ccc(Br)cc4[nH]3)cc2)c(Cl)c1 [Compound 39] = 3.1
C=Cc1cnc(-c2ccc(-c3nc4ccc(Br)cc4[nH]3)nc2)c(Cl)c1 [Compound 68] = -2.2

Inquiry: Data request, read-out inhibition at 0.2 µM, for O=C(O)c1cnc(-c2ccc(-c3nc4ncc(Br)cc4[nH]3)nc2)c(Cl)c1 [Compound 84]
Reply text: 6.3

Inquiry: Data request, read-out inhibition at 0.2 µM, for O=C(O)c1cnc(-c2ccc(-c3nc4ccc(N5CCOCC5)cc4[nH]3)nc2)c(Cl)c1 [Compound 79]
Reply text: 3.3

Inquiry: Data request, read-out inhibition at 0.2 µM, for COC(=O)c1cnc(-c2ccc(-c3nc4ccc(C(C)(C)C)cc4[nH]3)nc2)c(Cl)c1 [Compound 74]
Reply text: 81.3
